All values here come from PubChem BioAssay (Tox21).

Target: Thyrotropin-releasing hormone receptor (Homo sapiens)
Assay: qHTS assay to identify small molecule antagonists of the thyrotropin-releasing hormone receptor (TRHR) signaling pathway (AID 1346877)
Conditions: TRHR-HEK293, TRH-induced calcium fluorescence, antagonist mode; series mostly up to 51.3 µM
Active and inactive are the calls of the source. Calls follow the shape of the dose curve; as a rule, active = well fitted inhibition curve with a large enough effect in the repeat runs (not every such curve was filed as active); inconclusive = weak or mixed curves; inactive = flat fitted curve, though single readings scatter.
endpoint: activity, negative = inhibition

# annotated cases, reported activity, negative = inhibition shown
                                   compound    result
0      CN(C)C(=O)Nc1cccc(OC(=O)NC(C)(C)C)c1  inactive
1                             C=CCc1ccccc1O  inactive
2  CC(C)(C)NCC(O)c1cc(Cl)c(N)c(C(F)(F)F)c1 (stereo unspecified)  inactive
3                   Nc1ccc2c(c1)Cc1ccccc1-2  inactive
4    O=C(N[C@H]1CN2CCC1CC2)c1ccc2c(c1)OCCO2  inactive

Next item in the queue.
Req: Returns the measured activity, negative = inhibition for the input compound. Input: CCCC[N+]1(C)[C@@H]2CC(OC(=O)[C@H](CO)c3ccccc3)C[C@H]1[C@@H]1O[C@@H]12 (stereo partly specified)
Resp: inactive
